Provenance of the data: ChEMBL document CHEMBL2029318

Record form. Attribute: pIC50. Fill in for each entry.
biological target: Neuropeptide Y receptor type 2 (Homo sapiens, UniProt P49146); experiment: Antagonist activity at neuropeptide Y receptor Y2; format: functional
Sequence (P49146 whole entry): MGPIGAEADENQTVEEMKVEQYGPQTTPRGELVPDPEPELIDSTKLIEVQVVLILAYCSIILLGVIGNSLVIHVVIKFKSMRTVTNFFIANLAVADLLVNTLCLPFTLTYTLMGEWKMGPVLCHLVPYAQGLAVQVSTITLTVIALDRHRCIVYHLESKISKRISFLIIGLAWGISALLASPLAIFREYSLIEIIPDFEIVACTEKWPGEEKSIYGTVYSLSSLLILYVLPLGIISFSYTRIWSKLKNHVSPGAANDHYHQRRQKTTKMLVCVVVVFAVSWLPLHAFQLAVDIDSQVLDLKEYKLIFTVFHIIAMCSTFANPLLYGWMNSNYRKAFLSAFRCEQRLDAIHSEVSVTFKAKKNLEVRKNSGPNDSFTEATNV
Give bare numbers, as −log10 of the molar value.

The following compounds have reported results that may help.
COc1ccc(NC(=S)N2CCC(C(O)(c3ccccc3)c3ccccc3)CC2)cc1
5.96
CCS(=O)(=O)c1ccc(OC(=O)N2CCC(C(O)(c3ccccc3)c3ccccc3)CC2)cc1
7.23
CN(C)S(=O)(=O)c1ccc(OC(=O)N2CCC(C(O)(c3ccccc3)c3ccccc3)CC2)cc1
7.21
CCOc1ccc(NC(=S)N2CCC(C(O)(c3ccccc3)c3c(C)noc3C)CC2)cc1 (centres undefined)
5.48

Here are 5 compounds. What values of pIC50 were reported for them?
1. CCOc1ccc(OC(=O)N2CCC(C(O)(c3ccccc3)c3ccccc3)CC2)cc1
2. COc1cccc(-c2nc(-c3ccc(NC(=O)Cc4ccccc4OC)cc3)no2)c1
3. CS(=O)(=O)c1ccc(OC(=O)N2CCC(C(O)(c3ccccc3)c3ccccc3)CC2)cc1
4. CCN(CC)c1ccc(NC(=S)N2CCC(C(O)(c3ccccc3)c3ccccc3)CC2)cc1Cl
5. CCOC(=O)c1ccc(NC(=S)N2CCC(C(O)(c3ccccc3)c3ccccc3)CC2)cc1

## Output
1: 5.80; 2: 5.92; 3: 6.85; 4: 7.07; 5: 6.68
